- Compound: "Cc1oc(-c2ccco2)nc1CCOc1ccc(CC2SC(=O)NC2=O)cn1 (stereo not given)"
  melting point: "160 to 162 °C"
- Compound: "CCCCCCCCC1OC(=O)c2cc(NC(C)=O)ccc21 (stereo not given)"
  melting point: "133 to 134 °C"
- Compound: "CN1CCC2(CC=C(c3cc4ccccc4s3)CC2)CC1"
  melting point: "89.7 to 91.2 °C"
- Compound: "COCOc1cc(C(F)(F)F)ccc1-c1cc(-c2cccc([N+](=O)[O-])c2)c(C#N)c(NC(=O)c2cccs2)n1"
  melting point: "139 to 140 °C"
- Compound: "Cc1ccc(-c2ccc(/C=C/C(=O)Nc3ccc(CN(C)C4CCOCC4)cc3)s2)cc1"
  melting point: "199 to 201 °C"
- Compound: "CNC(=O)Cc1cccc2ccoc12"
  melting point: "138 to 142 °C"
- Compound: "Cc1ccccc1-n1ccc2c(Cl)nc3c(C)cccc3c21"
  melting point: "135 to 137 °C"
- Compound: "N#CN=C(N)Cc1ccc2c(c1)Nc1nccnc1S2"
  melting point: "218 to 219 °C"
- Compound: "CC(C)(NC(=O)C(CO)NC(=O)c1ccccc1)c1ccccc1 (stereo not given)"
  melting point: "152 to 153 °C"
- Compound: "CC=C(C(=O)OC)c1ccccc1CBr"
  melting point: "64 to 66 °C"
- Compound: "CC(C)c1n[nH]c2c(NCc3ccc(O)cc3)ncnc12"
  melting point: "234 to 236 °C"
- Compound: "CN(C)S(=O)(=O)c1cc(-c2csc(=Nc3ccccc3)n2C2CCCCC2)ccc1Cl"
  melting point: "148 °C"
- Compound: "Cn1ncc2c(=O)n3c(nc21)SCC3"
  melting point: "257 to 258 °C"
- Compound: "Cc1cc(SC2=C(O)CC(CCc3ccc(O)cc3)(C3CCCCC3)OC2=O)c(C(C)(C)C)cc1OS(=O)(=O)c1ccc(C#N)cc1 (stereo not given)"
  melting point: "112 °C"
- Compound: "Clc1ccc(-n2ccc(OCCOCCN3CCCCC3)n2)cc1Cl"
  melting point: "126 to 128 °C"

* * *

We begin with a simple list: items and their reported melting point.

- Compound: "O=C1COc2cc3[nH]c(C(=O)N4CCC(Cc5ccccc5)CC4)cc3cc2N1"
  melting point: "225 to 231 °C"
- Compound: "CC(C)CCCC(C)C1CC=C2C3=C(CCC21C)C1(C)CC=CCC1CC3 (configuration not stated)"
  melting point: "105 °C"
- Compound: "CC(C)(C)NCC(O)c1ccc(N)c(C#N)c1 (configuration not stated)"
  melting point: "181 to 185 °C"
- Compound: "C[Si](C)(C)NC(=O)c1ccccc1"
  melting point: "111 to 115 °C"
- Compound: "COc1cc(C(C)C)c2c(c1)S(=O)(=O)N(COC(=O)c1cc(C)no1)C2=O"
  melting point: "157 to 158 °C"
- Compound: "COc1ccc(C=Nc2ccc(SC)cc2)cc1"
  melting point: "183 to 184 °C"
- Compound: "Cc1ncccc1CN(CCn1cc(C)c2occc2c1=O)Cc1ccc2c(c1)N(CC(C)C)C(=O)C(C)(C)C(=O)N2"
  melting point: "206 to 208 °C"
- Compound: "c1cc(C2OCCO2)ccc1C1OCCO1"
  melting point: "86 to 89 °C"
- Compound: "CCn1cc(N(C)S(=O)(=O)c2cccs2)c2[nH]c(C3=NCCS3)cc21"
  melting point: "163 °C"
- Compound: "COCc1oc(C)cc(=O)c1OCc1ccccc1"
  melting point: "30 to 32 °C"
- Compound: "COc1cc(C=C2C(=O)CCc3cc(OC)c(OC)cc32)c([N+](=O)[O-])cc1OC"
  melting point: "65 to 66 °C"
- Compound: "CC(=O)OCC1OC(n2c(Cl)nc3cc(F)c(F)cc32)C(OC(C)=O)C1OC(C)=O (configuration not stated)"
  melting point: "90 to 91 °C"
- Compound: "Cc1cc(-c2cc(=O)c3cccnc3o2)cc(C)c1OCC(=O)O"
  melting point: "280 °C"
- Compound: "CCOC(=O)Nc1nc(C)co1"
  melting point: "126 °C"
- Compound: "CC1CCCC(C)N1C(=O)C=Cc1ccc(C(F)(F)F)cc1 (configuration not stated)"
  melting point: "89 to 91 °C"
- Compound: "CCOC(=O)c1c(C(F)(F)F)nsc1SC"
  melting point: "64 to 65 °C"
- Compound: "N#Cc1cc2c(cc1F)OCC21C(=O)Nc2ccccc21 (configuration not stated)"
  melting point: "222 to 224 °C"
- Compound: "CC(C)CCN1C(=O)C(NC(=O)Oc2cccc(N(C)C)c2)C(=O)N(c2ccccc2)c2ccc(Cl)cc21 (configuration not stated)"
  melting point: "199 to 200 °C"
- Compound: "O=C(OC#CCc1ccccc1)C1CN=CNC1 (configuration not stated)"
  melting point: "117 to 118 °C"
- Compound: "O=C(O)COc1ccc2c(c1)-c1nc(S(=O)(=O)C(c3ccccc3)c3ccccc3)sc1CC2"
  melting point: "169 to 170 °C"
- Compound: "Cc1oc(-c2ccccc2)nc1COc1ccc(Cc2nc(CCC(=O)O)c(-c3ccccc3)s2)cc1"
  melting point: "119 to 120 °C"
- Compound: "CCCc1cn(Cc2ccc(C(=O)NS(=O)(=O)c3ccccc3Cl)cc2OC)c2cc(CCCC(=O)N(C)C)ccc12"
  melting point: "137 to 138 °C"
- Compound: "CCC(=NNC(=O)c1ccccc1)c1cccnc1"
  melting point: "169 °C"
- Compound: "N#Cc1cc(F)c(-n2c(=O)cc(C(F)(F)F)[nH]c2=O)cc1Oc1cccc2c(O)cccc12"
  melting point: "168 °C"
- Compound: "CCOC(=O)[C@H](Cc1cc(OC)c(OC)cc1I)NC=O"
  melting point: "151 to 152 °C"
- Compound: "Cc1ccccc1CCC(=NO)C(=O)C(F)(F)F"
  melting point: "80 to 81 °C"
- Compound: "Cc1ccc2c(c1)c(=O)[nH]c(=O)n2CCCCN1CCC(OC(c2ccccc2)c2ccccc2)CC1"
  melting point: "180 to 182 °C"
- Compound: "COC(=O)c1sc(C(=O)OC)c(OC)c1N"
  melting point: "120 to 124 °C"
- Compound: "CCOCn1c(N)c(C#N)c2c(N)ncnc21"
  melting point: "229 to 230 °C"
- Compound: "COc1cc(C[C@@H](NC(C)=O)C(=O)O)ccc1OC(C)=O"
  melting point: "174 to 175 °C"
- Compound: "N#Cc1nn(-c2c(Cl)cc(C(F)(F)F)cc2Cl)cc1OC(F)F"
  melting point: "85 to 87 °C"
- Compound: "CC(=O)c1cccc(C)c1NC(=O)CBr"
  melting point: "97 to 100 °C"
